# tested-target: pooled human IgG (human IgG1, 2, 3 and 4)
quantity-kind: Enzyme Activity Endpoint Assay: Fc (ng/µL)
One number for each entry, in ng/µL.

Query: Consider the protein PRT-486 (protein) MVTSVWTKGVTPPTDFIKGEDVFHAPYKAGQGWYDITKTFNGKDNLLCGAATAGNMLHWWFDQNKDQIERYLKEHPEKQKIIFNNQELFDLKAAIDTKDSQTDSKLFEYFKEKAFPYLSTKHLGVFPDHVLDMFINGYRLSLTNHGPTPVKEGSKDKRGGIFDAVFTRGVQSKLLTSRHDFKEKTLKEISDLIKQELTEGKALGLSHTYANVRINHVINLWGADFDSEGNLKAIYVTDSDTNASIGMKKYFVGVNSAGKVAISAKEIKEDNIGAQVLGLFTLSTGQDIWNQTNLEHHHHHH and give its measured Enzyme Activity Endpoint Assay: Fc.
Response: 210

# ---- query protein ----
Query: Reported Enzyme Activity Endpoint Assay: Fc for PRT-528 (protein) MANQEIRYSEETPKTITSVWTKGVTPPTDFIQNEDVLHAPYIANQGWYDITKTFNGKDDLLCGAATAGNMLHWWFDQNKEEIENYLKKHPEKQKINFNGEQMFDVKEAIDTKDSQTDSALFEYFKDKAFPNLSTKHLGVMPDLVLDMFINGYYLSLGKHGPTPVKRGTKDPRGGIFDAVFTRGDQSKLLTARHDFKEKTLNEISDLIKQELTEGKALALSHTYANVRINHVINLWGADFNSEGNLEAIYVTDSDSNASIGMKKYYVGVNAAGKVAISAKEIEGDNIGAQVLGLFTLSTGQDIWEQTNLEHHHHHH : what is it?
Response: 114
